// reported pIC50 per item
# Tested on: Karpas-422 cells
# MEASUREMENT_DESCRIPTION: Anti-proliferation by Cell Titer-Glo method (Test Example 3)
# Assay type: cell-based
# EXPERIMENTAL_CONTEXT: Homo sapiens; Karpas-422 cells, Cell-Titer Glo on the eleventh day; read-out: Test Example 3 Karpas-422 cell anti-proliferation IC50
Worth noting: pIC50 values are minus log10 of concentrations stated in mol/L.

Worked set:
COc1cc(C)[nH]c(=O)c1CNC(=O)c1cc(Cl)c2c(c1C)O[C@@H]([C@H]1CC[C@H](N3CC[C@H](OC)C3)CC1)CO2 [Compound 120]; 7.50
COC1CN([C@H]2CC[C@H]([C@H]3COc4c(F)cc(C(=O)NCc5c(SC)cc(C)[nH]c5=O)c(C)c4O3)CC2)C1 [Compound 170]; 7.33

Here is another compound to look at.
**Q:** Any idea what pIC50 was measured for CSc1cc(C)[nH]c(=O)c1CNC(=O)c1cc(C#N)c2c(c1C)O[C@@H]([C@H]1CC[C@@H](N3CC(OC4CC4)C3)CC1)CO2 [Compound 159] ?
**A:** 8.64

----------
# SUBJECT_OF_TEST: EZH1/SUZ/EED (Homo sapiens, UniProt O75530+Q15022+Q92800)
# Sequence (Q92800 2-747 limits assumed): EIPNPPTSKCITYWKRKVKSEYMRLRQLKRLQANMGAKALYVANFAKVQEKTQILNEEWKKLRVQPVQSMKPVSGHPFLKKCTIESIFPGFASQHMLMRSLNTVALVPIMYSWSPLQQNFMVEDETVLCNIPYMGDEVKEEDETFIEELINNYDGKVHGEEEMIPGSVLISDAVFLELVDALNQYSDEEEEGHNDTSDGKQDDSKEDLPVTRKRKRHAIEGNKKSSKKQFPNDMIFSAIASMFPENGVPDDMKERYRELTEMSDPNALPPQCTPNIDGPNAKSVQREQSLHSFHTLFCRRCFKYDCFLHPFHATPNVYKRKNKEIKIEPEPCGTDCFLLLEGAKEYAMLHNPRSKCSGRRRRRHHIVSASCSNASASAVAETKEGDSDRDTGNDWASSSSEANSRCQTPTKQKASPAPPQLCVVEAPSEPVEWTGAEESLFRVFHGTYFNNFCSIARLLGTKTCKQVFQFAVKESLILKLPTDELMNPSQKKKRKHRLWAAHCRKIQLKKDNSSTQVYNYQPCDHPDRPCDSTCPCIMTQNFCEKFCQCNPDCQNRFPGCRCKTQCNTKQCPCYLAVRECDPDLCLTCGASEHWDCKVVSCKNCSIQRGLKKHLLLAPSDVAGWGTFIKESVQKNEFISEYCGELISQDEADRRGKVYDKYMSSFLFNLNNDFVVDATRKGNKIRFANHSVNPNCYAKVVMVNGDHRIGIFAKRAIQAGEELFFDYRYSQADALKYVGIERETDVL
# Sequence (Q15022 2-739 partner limits assumed): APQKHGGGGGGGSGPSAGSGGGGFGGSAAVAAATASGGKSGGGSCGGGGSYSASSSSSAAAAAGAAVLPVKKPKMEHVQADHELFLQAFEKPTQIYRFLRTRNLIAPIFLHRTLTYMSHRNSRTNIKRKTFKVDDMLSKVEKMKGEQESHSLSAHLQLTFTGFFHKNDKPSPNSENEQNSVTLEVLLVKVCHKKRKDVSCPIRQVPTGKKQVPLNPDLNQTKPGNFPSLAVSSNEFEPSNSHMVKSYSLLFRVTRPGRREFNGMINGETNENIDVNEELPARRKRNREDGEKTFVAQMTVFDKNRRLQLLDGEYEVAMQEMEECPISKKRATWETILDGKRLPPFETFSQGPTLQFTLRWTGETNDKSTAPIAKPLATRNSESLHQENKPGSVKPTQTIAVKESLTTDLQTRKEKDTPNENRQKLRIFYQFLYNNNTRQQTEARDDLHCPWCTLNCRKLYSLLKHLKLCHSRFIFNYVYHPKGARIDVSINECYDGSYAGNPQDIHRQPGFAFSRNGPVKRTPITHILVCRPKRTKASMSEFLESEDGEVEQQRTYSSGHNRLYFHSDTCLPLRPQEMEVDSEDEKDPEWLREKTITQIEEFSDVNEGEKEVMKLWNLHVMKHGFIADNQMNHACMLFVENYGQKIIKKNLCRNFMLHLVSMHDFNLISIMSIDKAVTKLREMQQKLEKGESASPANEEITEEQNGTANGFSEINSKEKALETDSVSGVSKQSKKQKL
# Sequence (O75530 2-441 partner limits assumed): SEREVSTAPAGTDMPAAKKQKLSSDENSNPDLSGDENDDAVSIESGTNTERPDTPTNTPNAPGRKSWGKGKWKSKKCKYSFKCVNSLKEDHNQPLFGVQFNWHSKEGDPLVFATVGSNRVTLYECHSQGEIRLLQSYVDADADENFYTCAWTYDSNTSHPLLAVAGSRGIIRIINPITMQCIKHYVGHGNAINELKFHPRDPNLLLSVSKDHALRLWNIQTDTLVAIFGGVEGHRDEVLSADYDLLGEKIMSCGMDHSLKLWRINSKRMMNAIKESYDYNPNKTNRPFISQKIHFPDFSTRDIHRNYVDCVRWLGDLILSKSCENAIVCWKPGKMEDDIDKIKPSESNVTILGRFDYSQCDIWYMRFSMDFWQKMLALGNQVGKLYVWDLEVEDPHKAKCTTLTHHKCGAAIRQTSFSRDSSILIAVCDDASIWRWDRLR
# MEASUREMENT_DESCRIPTION: Inhibitory effect on EZH1 by the MTase-Glo method (Test Example 1)
# EXPERIMENTAL_CONTEXT: EZH1/SUZ/EED 25 nM, H3 peptide 10 μM, SAM 3 μM, 30° C. 3 h, read-out: Test Example 1 WT EZH1 IC50
READOUT_LABEL: pIC50
Keep in mind that pIC50 stands for -log10 of concentration in molar terms.

COCCN(C)[C@H]1CC[C@H]([C@H]2COc3c(Cl)cc(C(=O)NCc4c(SC)cc(C)[nH]c4=O)c(C)c3O2)CC1 [Compound 27]; 7.84
COc1cc(C)[nH]c(=O)c1CNC(=O)c1cc(Cl)c2c(c1C)OC(C1CCC(N(C)C)CC1)CO2 (stereo not shown) [Compound 5]; 7.59
CSc1cc(C)[nH]c(=O)c1CNC(=O)c1cc(Cl)c2c(c1C)O[C@@H](C1CCN(CCF)CC1)CO2 [Compound 24]; 8.04
COC1CN([C@H]2CC[C@@H]([C@H]3COc4c(C#N)cc(C(=O)NCc5c(SC)cc(C)[nH]c5=O)c(C)c4O3)CC2)C1 [Compound 153]; 8.16
CO[C@@H]1CCN([C@H]2CC[C@@H]([C@H]3COc4c(Cl)cc(C(=O)NCc5c(SC)cc(C)[nH]c5=O)c(C)c4O3)CC2)C1 [Compound 41]; 8.41

**Q:** Given the entry COC1CN([C@H]2CC[C@H]([C@H]3COc4c(Cl)cc(C(=O)NCc5c(SC)cc(C)[nH]c5=O)c(Cl)c4O3)CC2)C1 [Compound 150] , what pIC50 was observed with EZH1/SUZ/EED (Homo sapiens, UniProt O75530+Q15022+Q92800)?
**A:** 7.65

**Q:** Form field: pIC50 recorded for CSc1cc(C)[nH]c(=O)c1CNC(=O)c1cc(Cl)c2c(c1C)O[C@@H](C1CCN(CC3CCC3)CC1)CO2 [Compound 25] with EZH1/SUZ/EED (Homo sapiens, UniProt O75530+Q15022+Q92800) (enter value)
**A:** 8.08

----------
# SUBJECT_OF_TEST: EZH1/SUZ/EED (Homo sapiens, UniProt O75530+Q15022+Q92800)
# MEASUREMENT_DESCRIPTION: Inhibitory effect on EZH1 by the MTase-Glo method (Test Example 1)
# EXPERIMENTAL_CONTEXT: EZH1/SUZ/EED 25 nM, H3 peptide 10 μM, SAM 3 μM, 30° C. 3 h, read-out: Test Example 1 WT EZH1 IC50
Form field: pIC50 (one value per entry).
pIC50 field: float, defined as -log10 of concentration (mol/L).

Illustrative cases are given below, each with its answer.
CSc1cc(C)[nH]c(=O)c1CNC(=O)c1cc(C#N)c2c(c1C)O[C@@H]([C@H]1CC[C@@H](N3CC(OC4CC4)C3)CC1)CO2; 8.15
CSc1cc(C)[nH]c(=O)c1CNC(=O)c1cc(Cl)c2c(c1C)OC(C1CCC(N(C)C)CC1)CO2 (centres unmarked); 8.36
COC1C2CN([C@H]3CC[C@@H]([C@H]4COc5c(Cl)cc(C(=O)NCc6c(SC)cc(C)[nH]c6=O)c(C)c5O4)CC3)CC21 (some centres unmarked); 8.39

**Q:** Give the measured pIC50 of [2H]C([2H])([2H])Sc1cc(C)[nH]c(=O)c1CNC(=O)c1cc(Cl)c2c(c1C)O[C@@H](C1CCC(N3CC(OC)C3)CC1)CO2 (some centres unmarked) [Compound 177] .
**A:** 8.64

**Q:** For the compound CSc1cc(C)[nH]c(=O)c1CNC(=O)c1cc(Cl)c2c(c1C)O[C@@H]([C@H]1CC[C@@H](N3CCC3)CC1)CO2 , what pIC50 is on record?
**A:** 8.24

**Q:** Name the reported pIC50 value associated with the compound Cc1cc(C)c(CNC(=O)c2cc(Cl)c3c(c2C)OC(C2CCC(N(C)C4CC(F)C4)CC2)CO3)c(=O)[nH]1 (centres unmarked)
**A:** 6.66

**Q:** # get_value(readout='pIC50', item= CSc1cc(C)[nH]c(=O)c1CNC(=O)c1cc(Cl)c2c(c1C)O[C@@H]([C@H]1CC[C@H](N3CCN(C)CC3)CC1)CO2 )
**A:** 7.58

**Q:** Recorded pIC50 for CCS(=O)(=O)N1CCC([C@H]2COc3c(Cl)cc(C(=O)NCc4c(SC)cc(C)[nH]c4=O)c(C)c3O2)CC1 , please?
**A:** 8.33

**Q:** What value of pIC50 has been recorded for this entry: COC1CN([C@H]2CC[C@H]([C@H]3COc4c(Cl)cc(C(=O)NCc5c([S+](C)[O-])cc(C)[nH]c5=O)c(C)c4O3)CC2)C1 (some centres unmarked)
**A:** 5.05

**Q:** Form field: reported pIC50 of Cc1cc(C2CC2)c(CNC(=O)c2cc(Cl)c3c(c2C)O[C@@H]([C@H]2CC[C@H](N(C)C)CC2)CO3)c(=O)[nH]1
**A:** 5.46

**Q:** Record request: pIC50 value, item CSc1cc(C)[nH]c(=O)c1CNC(=O)c1cc(Cl)c2c(c1C)O[C@@H]([C@H]1CC[C@H](N3CC4(CCOC4)C3)CC1)CO2
**A:** 8.22

**Q:** Fill blank: measured pIC50 of the compound Cc1cc(C)c(CNC(=O)c2cc(Cl)c3c(c2C)OC[C@H]([C@H]2CC[C@@H](N(C)C)CC2)O3)c(=O)[nH]1 is ____.
**A:** 6.09

**Q:** So what does the record say about pIC50 for CON=C1CCC([C@H]2COc3c(Cl)cc(C(=O)NCc4c(C)cc(C)[nH]c4=O)c(C)c3O2)CC1 (some centres unmarked) ?
**A:** 6.88

**Q:** // query pIC50 value for entry COc1cc(C)[nH]c(=O)c1CNC(=O)c1cc(Cl)c2c(c1C)O[C@@H]([C@H]1CC[C@@H](N3CC(OC)C3)CC1)CO2
**A:** 7.82

**Q:** Name the recorded pIC50 for Cc1cc(C)c(CNC(=O)c2cc(Cl)c3c(c2C)OC(C2CCC(N4CC(F)C4)CC2)CO3)c(=O)[nH]1 (single isomer, unassigned) [Compound 70] .
**A:** 6.75

**Q:** Sample Cc1cc(C)c(CNC(=O)c2cc(Cl)c3c(c2C)OC(C2CCN(C)CC2)CO3)c(=O)[nH]1 (centres unmarked) — what was its pIC50?
**A:** 5.89

**Q:** Quick one: pIC50 for COc1cc(C)[nH]c(=O)c1CNC(=O)c1cc(Cl)c2c(c1C)O[C@@H]([C@H]1CC[C@H](N3CC4COCC4C3)CC1)CO2 (some centres unmarked) ?
**A:** 6.78

----------
# SUBJECT_OF_TEST: EZH2/SUZ/EED (Homo sapiens, UniProt O75530+Q15022+Q15910)
# Sequence (Q15910 2-746 limits assumed): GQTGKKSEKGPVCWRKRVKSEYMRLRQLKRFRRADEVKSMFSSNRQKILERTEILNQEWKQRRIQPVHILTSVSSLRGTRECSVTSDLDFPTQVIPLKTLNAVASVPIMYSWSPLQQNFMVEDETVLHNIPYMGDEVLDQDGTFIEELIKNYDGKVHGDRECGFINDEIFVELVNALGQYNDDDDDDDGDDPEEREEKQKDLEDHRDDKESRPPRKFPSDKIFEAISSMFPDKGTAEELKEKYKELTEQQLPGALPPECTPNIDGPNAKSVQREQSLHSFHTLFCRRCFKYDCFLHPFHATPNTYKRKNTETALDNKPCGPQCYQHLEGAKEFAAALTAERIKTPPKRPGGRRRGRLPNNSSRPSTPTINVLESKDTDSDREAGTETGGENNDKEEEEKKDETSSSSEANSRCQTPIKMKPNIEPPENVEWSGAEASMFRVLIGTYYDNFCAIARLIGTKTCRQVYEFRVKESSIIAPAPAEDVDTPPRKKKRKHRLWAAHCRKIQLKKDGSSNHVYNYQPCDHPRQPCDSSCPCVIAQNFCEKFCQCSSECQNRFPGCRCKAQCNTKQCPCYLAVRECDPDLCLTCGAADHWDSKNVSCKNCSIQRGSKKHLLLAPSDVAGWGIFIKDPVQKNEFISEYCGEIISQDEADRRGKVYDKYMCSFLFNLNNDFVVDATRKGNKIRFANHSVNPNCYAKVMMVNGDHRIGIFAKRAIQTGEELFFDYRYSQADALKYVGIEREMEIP
# Sequence (Q15022 2-739 partner limits assumed): as the sequence (Q15022 2-739 partner limits assumed) above
# Sequence (O75530 2-441 partner limits assumed): as the sequence (O75530 2-441 partner limits assumed) above
# MEASUREMENT_DESCRIPTION: Inhibitory effect on EZH2 by the MTase-Glo method (Test Example 1)
# EXPERIMENTAL_CONTEXT: EZH2/SUZ/EED 6.25 nM, H3 peptide 10 μM, SAM 3 μM, 30° C. 3 h, read-out: Test Example 1 WT EZH2 IC50
Listed below: pIC50 values for each entry.
Field pIC50 (float): negative decimal logarithm of the concentration in molar.

Please review the following examples before continuing.
COc1c(Cl)c2c(c(C)c1C(=O)NCc1c(C)cc(C)[nH]c1=O)O[C@@H](C1CCC(N(C)C)CC1)CO2 (mixture of isomers); 7.78
Cc1cc(C)c(CNC(=O)c2cc(Cl)c3c(c2C)OC(C2CCN(C4COC4)CC2)CO3)c(=O)[nH]1 (stereo not drawn); 7.96

**Q:** Requested read-out: pIC50. Entry: COC1(C(F)(F)F)CN(C2CCC(C3COc4c(Cl)cc(C(=O)NCc5c(C)cc(C)[nH]c5=O)c(C)c4O3)CC2)C1 (single isomer, unassigned) [Compound 68]
**A:** 7.23

**Q:** Which pIC50 value belongs to Cc1cc(C)c(CNC(=O)c2c(C)c3c(c(Cl)c2F)OC[C@H]([C@H]2CC[C@@H](N(C)C)CC2)O3)c(=O)[nH]1 ?
**A:** 8.51

**Q:** Requested read-out: pIC50. Entry: COC1CN([C@H]2CC[C@@H]([C@H]3COc4c(Cl)cc(C(=O)NCc5c(C)cc(C)[nH]c5=O)c(C)c4O3)CC2)C1
**A:** 8.60

**Q:** Would you mind telling me what pIC50 value was observed for CSc1cc(C)[nH]c(=O)c1CNC(=O)c1cc(C#N)c2c(c1C)O[C@@H]([C@H]1CC[C@@H](N3CC(OCCF)C3)CC1)CO2 ?
**A:** 8.43

**Q:** Recorded pIC50 of COc1cc(C)[nH]c(=O)c1CNC(=O)c1cc(Cl)c2c(c1C)O[C@@H]([C@H]1CC[C@@H](N3CC4C(C3)C4OC)CC1)CO2 (stereo partly drawn) , please.
**A:** 8.31

**Q:** Consider the compound [2H]C([2H])([2H])Sc1cc(C)[nH]c(=O)c1CNC(=O)c1cc(Cl)c2c(c1C)O[C@@H](C1CCC(N3CC(OC)C3)CC1)CO2 (stereo partly drawn) and give its measured pIC50.
**A:** 8.82

**Q:** I'd like to know its pIC50. The compound in question is CON(C)C1CCC(C2COc3c(Cl)cc(C(=O)NCc4c(C)cc(C)[nH]c4=O)c(C)c3O2)CC1 (single isomer, unassigned) [Compound 79]
**A:** 8.70

Origin of the recorded values: patent US20260184697A1
